# system tested: JAK1 (Homo sapiens (Human))
# protocol notes: Enzyme assay (Assay Example^a 1), JAK1
# Format: biochemical
# reported conditions: ATP 100 μM; Table^a 154
Binary label based on IC50 with cut-off 0.005 µM: below gives Criterion met, not below gives Criterion not met.

[
  {
    "compound": "c1ccc(CCCN[C@H]2CC[C@H](c3nnn4cnc5[nH]ccc5c34)CC2)cc1 [136b]",
    "assigned class": "Criterion not met"
  },
  {
    "compound": "OC(CN[C@H]1CC[C@H](c2nnn3cnc4[nH]ccc4c23)CC1)(c1ccccc1)C(F)(F)F (mixture of isomers) [196b]",
    "assigned class": "Criterion met"
  },
  {
    "compound": "CO[C@H]1CC[C@H](c2nnn3cnc4[nH]ccc4c23)CC1 [compound 63]",
    "assigned class": "Criterion not met"
  }
]

* * *

Below, each entry is listed with its recorded IC50.
# system tested: Tyk2 (Homo sapiens (Human), UniProt P29597)
# Sequence (P29597 whole entry): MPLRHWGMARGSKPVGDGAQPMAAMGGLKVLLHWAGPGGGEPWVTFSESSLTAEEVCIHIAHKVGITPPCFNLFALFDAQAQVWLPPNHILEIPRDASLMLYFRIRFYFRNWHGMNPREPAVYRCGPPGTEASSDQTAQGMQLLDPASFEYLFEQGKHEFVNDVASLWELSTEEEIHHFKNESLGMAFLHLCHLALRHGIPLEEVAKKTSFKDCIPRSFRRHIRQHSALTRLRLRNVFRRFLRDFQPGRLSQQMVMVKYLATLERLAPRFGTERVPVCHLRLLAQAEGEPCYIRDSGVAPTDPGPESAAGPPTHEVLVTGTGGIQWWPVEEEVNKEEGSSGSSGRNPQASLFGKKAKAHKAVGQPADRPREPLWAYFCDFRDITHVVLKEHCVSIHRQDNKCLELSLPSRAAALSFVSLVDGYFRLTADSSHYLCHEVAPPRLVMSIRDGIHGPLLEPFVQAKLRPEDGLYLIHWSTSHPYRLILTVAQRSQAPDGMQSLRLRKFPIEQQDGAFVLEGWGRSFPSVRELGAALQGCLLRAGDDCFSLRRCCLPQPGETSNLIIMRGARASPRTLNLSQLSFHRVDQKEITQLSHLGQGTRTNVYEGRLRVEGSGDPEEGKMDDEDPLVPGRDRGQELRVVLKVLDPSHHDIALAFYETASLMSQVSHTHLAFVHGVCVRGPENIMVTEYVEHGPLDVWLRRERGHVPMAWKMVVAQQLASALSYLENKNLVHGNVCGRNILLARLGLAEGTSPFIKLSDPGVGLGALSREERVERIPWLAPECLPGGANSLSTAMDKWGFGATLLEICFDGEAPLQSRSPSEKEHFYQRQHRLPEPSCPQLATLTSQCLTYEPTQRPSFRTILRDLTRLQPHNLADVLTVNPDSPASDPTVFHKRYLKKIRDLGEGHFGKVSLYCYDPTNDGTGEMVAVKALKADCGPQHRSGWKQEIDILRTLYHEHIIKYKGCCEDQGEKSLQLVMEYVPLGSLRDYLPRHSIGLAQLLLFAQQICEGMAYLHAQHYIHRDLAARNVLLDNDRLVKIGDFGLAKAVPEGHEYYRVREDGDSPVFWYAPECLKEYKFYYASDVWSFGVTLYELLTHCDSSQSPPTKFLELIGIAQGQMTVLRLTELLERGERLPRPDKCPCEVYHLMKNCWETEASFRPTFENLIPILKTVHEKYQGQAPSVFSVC
# protocol notes: Enzyme assay (Assay Example^a 1), Tyk2
# Format: biochemical
# reported conditions: ATP 100 μM
measurement type: IC50 (µM)

[
  {
    "molecule": "c1cnc2cc(CN3CCC(c4nnn5cnc6[nH]ccc6c45)CC3)ccc2n1 [compound 218]",
    "relation operator": ">",
    "reported result": 1
  },
  {
    "molecule": "Clc1ccc(CN2CCC(c3nnn4cnc5[nH]ccc5c34)CC2)c(Cl)n1 [compound 231]",
    "relation operator": "=",
    "reported result": 0.61
  },
  {
    "molecule": "FC(F)(Br)CN[C@H]1CC[C@H](c2nnn3cnc4[nH]ccc4c23)CC1 [382b]",
    "relation operator": "=",
    "reported result": 0.013
  },
  {
    "molecule": "N#CCN(C[C@H]1CC[C@H](c2nnn3cnc4[nH]ccc4c23)CC1)C(=O)CC(F)(F)F [compound 412]",
    "relation operator": "=",
    "reported result": 0.32
  }
]

* * *

# system tested: JAK2 (Homo sapiens (Human), UniProt O60674)
# protocol notes: Enzyme assay (Assay Example^a 1), JAK2
# Format: biochemical
# reported conditions: ATP 100 μM
Binary label based on IC50 with cut-off 0.03 µM: below gives Fulfilled, not below gives Not fulfilled.

[
  {
    "compound": "O=S(=O)(C[C@H]1CC[C@H](c2nnn3cnc4[nH]ccc4c23)CC1)NC1CC1 [compound 417]",
    "assigned class": "Fulfilled"
  },
  {
    "compound": "OC12CC3CC(C1)CC(c1nnn4cnc5[nH]ccc5c14)(C3)C2 [compound 445]",
    "assigned class": "Not fulfilled"
  },
  {
    "compound": "N#CCC(=O)NC[C@H]1CC[C@H](c2nnn3cnc4[nH]ccc4c23)CC1 [compound 372]",
    "assigned class": "Fulfilled"
  },
  {
    "compound": "N#Cc1ccc(CN2CCC(c3nnn4cnc5[nH]cc(Cl)c5c34)CC2)cc1 [compound 377]",
    "assigned class": "Fulfilled"
  },
  {
    "compound": "FC(F)(F)C(F)(F)CN[C@H]1CC[C@@H](c2nnn3cnc4[nH]ccc4c23)CC1 [383a]",
    "assigned class": "Not fulfilled"
  },
  {
    "compound": "N#CC[C@H]1CC[C@H](c2nnn3cnc4[nH]ccc4c23)CC1 [435b]",
    "assigned class": "Fulfilled"
  },
  {
    "compound": "CN(C)S(=O)(=O)C[C@H]1CC[C@H](c2nnn3cnc4[nH]ccc4c23)CC1 [compound 418]",
    "assigned class": "Fulfilled"
  },
  {
    "compound": "N#Cc1ccc(NC[C@H]2CC[C@H](c3nnn4cnc5[nH]ccc5c34)CC2)c2ccccc12 [compound 248]",
    "assigned class": "Not fulfilled"
  },
  {
    "compound": "N#CCC(=O)N(CC(F)(F)F)C[C@H]1CC[C@H](c2nnn3cnc4[nH]ccc4c23)CC1 [compound 407]",
    "assigned class": "Fulfilled"
  },
  {
    "compound": "COc1ccc(C(O)(CN[C@H]2CC[C@H](c3nnn4cnc5[nH]ccc5c34)CC2)C(F)(F)F)cn1 (stereo partly shown) [387b]",
    "assigned class": "Not fulfilled"
  },
  {
    "compound": "CC1CCCCC1c1nnn2cnc3[nH]ccc3c12 (stereo not shown) [compound 7]",
    "assigned class": "Fulfilled"
  },
  {
    "compound": "O=C(CNC[C@H]1CC[C@H](c2nnn3cnc4[nH]ccc4c23)CC1)NCC(F)(F)F [compound 341]",
    "assigned class": "Not fulfilled"
  },
  {
    "compound": "CC(C)(C)NC[C@H]1CC[C@H](c2nnn3cnc4[nH]ccc4c23)CC1 [compound 332]",
    "assigned class": "Not fulfilled"
  },
  {
    "compound": "N#C[C@@H]1CCN(C[C@H]2CC[C@H](c3nnn4cnc5[nH]ccc5c34)CC2)C1 [compound 301]",
    "assigned class": "Not fulfilled"
  },
  {
    "compound": "c1cc2c(ncn3nnc([C@H]4CC[C@H](NC5CC5)CC4)c23)[nH]1 [392b]",
    "assigned class": "Not fulfilled"
  },
  {
    "compound": "CCN(C)C1CN(C[C@H]2CC[C@H](c3nnn4cnc5[nH]ccc5c34)CC2)C1 [compound 424]",
    "assigned class": "Not fulfilled"
  },
  {
    "compound": "Cc1ccccc1-c1nnn2cnc3[nH]ccc3c12 [compound 5]",
    "assigned class": "Not fulfilled"
  },
  {
    "compound": "O[C@@H]1Cc2ccccc2[C@@H]1NC1CCC(c2nnn3cnc4[nH]ccc4c23)CC1 (mixture of isomers) [compound 379]",
    "assigned class": "Not fulfilled"
  },
  {
    "compound": "N#Cc1ccc(CN2CCC(c3nnn4cnc5[nH]ccc5c34)CC2)cc1F [compound 222]",
    "assigned class": "Not fulfilled"
  },
  {
    "compound": "Fc1ccc(C2(NC[C@H]3CC[C@H](c4nnn5cnc6[nH]ccc6c45)CC3)CCC2)cc1 [compound 324]",
    "assigned class": "Not fulfilled"
  },
  {
    "compound": "O[C@H]1CCCC[C@H]1CNC[C@H]1CC[C@H](c2nnn3cnc4[nH]ccc4c23)CC1 (relative stereo) [compound 312]",
    "assigned class": "Not fulfilled"
  },
  {
    "compound": "c1cc2c(ncn3cnc(C4CCCCC4)c23)[nH]1 [compound 2]",
    "assigned class": "Fulfilled"
  },
  {
    "compound": "CC(C)(C)OC(=O)N1CCC(CNC[C@H]2CC[C@H](c3nnn4cnc5[nH]ccc5c34)CC2)CC1 [compound 335]",
    "assigned class": "Not fulfilled"
  },
  {
    "compound": "FC1(F)Oc2cccc(CN3CCC(c4nnn5cnc6[nH]ccc6c45)CC3)c2O1 [compound 229]",
    "assigned class": "Not fulfilled"
  },
  {
    "compound": "CC1CC1NC[C@H]1CC[C@H](c2nnn3cnc4[nH]ccc4c23)CC1 (stereo partly shown) [compound 291]",
    "assigned class": "Not fulfilled"
  },
  {
    "compound": "O=C(CC(F)(F)F)N(CC(F)(F)F)C[C@H]1CC[C@H](c2nnn3cnc4[nH]ccc4c23)CC1 [compound 411]",
    "assigned class": "Fulfilled"
  },
  {
    "compound": "COCC1(NC[C@H]2CC[C@H](c3nnn4cnc5[nH]ccc5c34)CC2)CC1 [compound 293]",
    "assigned class": "Not fulfilled"
  },
  {
    "compound": "Brc1csc(CN2CCC(c3nnn4cnc5[nH]ccc5c34)CC2)c1 [compound 237]",
    "assigned class": "Fulfilled"
  },
  {
    "compound": "O=C(N[C@@H]1CCN(C[C@H]2CC[C@H](c3nnn4cnc5[nH]ccc5c34)CC2)C1)C(F)(F)F [compound 320]",
    "assigned class": "Not fulfilled"
  },
  {
    "compound": "c1cc2c(ncn3nnc([C@H]4CC[C@H](CNC5CSC5)CC4)c23)[nH]1 [compound 344]",
    "assigned class": "Not fulfilled"
  },
  {
    "compound": "N#CCC(=O)N(C[C@H]1CC[C@H](c2nnn3cnc4[nH]ccc4c23)CC1)C1CC1 [compound 409]",
    "assigned class": "Not fulfilled"
  },
  {
    "compound": "FC(F)Oc1ccc(CN2CCC(c3nnn4cnc5[nH]ccc5c34)CC2)cc1 [compound 220]",
    "assigned class": "Not fulfilled"
  }
]
